B1: PRDM14 peptide 196-211 (PR domain zinc finger protein 14), 16-mer library wild type / NSP3 SUD-M (ORF1ab Nsp3c SUD-M, residues 1356-1493) (parent)
chain 1: QFTEEDLHFVLYGVTP
chain 2: LPSIISNEKQEILGTVSWNLREMLAHAEETRKLMPVCVETKAIVSTIQRKYKGIKIQEGVVDYGARFYFYTSKTTVASLINTLNDLNETLVTMPLGYVTHGLNLEEAARYMRSLKVPATVSVSSPDAVTAYNGYLTSS

- Variants of: B1
- condition: with NSP3 SUD-M (ORF1ab Nsp3c SUD-M, residues 1356-1493); bait immobilised on MaxiSorp plates (10 µg), library pre-cleared on GST, 2 h binding at 4 °C, five washes; one round per day, days 1-4; value from days 2 and 3; keep out of graded; scale: average fractional NGS count over selection days 2 and 3
readoutType: screen value
Just the number, please, no unit attached.

Example variants with recorded screen value:
alteration	screen value
chain 1 L11N	0
chain 1 V14Y	1.26e-05
chain 1 L7K	0

stdin: Looking for the measured screen value of chain 1 Y12P , can you help?
stdout: 0

stdin: Try chain 1 E5R next.
stdout: 0

stdin: Try chain 1 T15M next.
stdout: 0

stdin: Try chain 1 L11M next.
stdout: 0

stdin: Try chain 1 E4D next.
stdout: 2.34e-05

stdin: Try chain 1 H8P next.
stdout: 2.01e-05

stdin: Try chain 1 E5S next.
stdout: 0

stdin: Try chain 1 T15R next.
stdout: 0

stdin: Try chain 1 Y12F next.
stdout: 1.23e-05

stdin: Try chain 1 L11A next.
stdout: 0

stdin: Try chain 1 L11D next.
stdout: 0
